system: Human AXIN2; experiment: qPCR of AXIN2 expression in HCT116 cells; assay type: cell-based; conditions: HCT-116, Table 2, HCT116 cells, AXIN2 vs β-actin, 24 hours
value type: IC50

input: Item `CC(C)(Oc1cccc(N2CCC[C@@H](NC(=O)N(Cc3ccc(-c4cn[nH]c4)cc3)C3CC3)C2)c1)C(=O)NCCN` : provide IC50
output: 2.54 µM

input: Item `CC(C)(Oc1cccc(N2CCC[C@@H](C(=O)N(Cc3ccc(-c4cn[nH]c4)c(Cl)c3)C3CC3)C2)c1)C(=O)N1CCNCC1` : provide IC50
output: 10 to 20 µM

input: Item CC(C)(Oc1cccc(N2CC(C(=O)N(Cc3ccc(-c4ccccc4)cc3)C3CC3)CC(c3ccccc3)C2)c1)C(=O)N1CCNCC1 (racemic) : provide IC50
output: 10 to 20 µM

input: Item `CC(C)(Oc1ccc(Cl)c(N2CCC[C@@H](C(=O)N(Cc3ccc(C4=CCCCC4)cc3)C3CC3)C2)c1)C(=O)N1CCNCC1` : provide IC50
output: 10 to 20 µM

input: Item `CC(C)(Oc1cccc(N2CCC[C@@H](C(=O)N(Cc3ccc(-c4c[nH]c5ncccc45)cc3)C3CC3)C2)c1Cl)C(=O)N1CCNCC1` : provide IC50
output: 10 to 50 µM

input: Item `CC(C)(Oc1cccc(N2CCC[C@@H](C(=O)N(Cc3ccc(C4=CCCCC4)c(Cl)c3)C3CC3)C2)c1)C(=O)N1CCNCC1` : provide IC50
output: 10 to 50 µM

* * *

Field: IC50. Provide a value for each of the compounds that follow.
molecular target: BCL9/β-catenin (Homo sapiens, UniProt P35222); assay: FP (BCL-9 avidity) fluorescence polarization competition assay with beta-catenin and FAP-Bcl9 tracer; format: binding; settings: Table 1.2, compounds 7-16; read-out: BCL-9 avidity FP IC50
Sequence (P35222 whole entry): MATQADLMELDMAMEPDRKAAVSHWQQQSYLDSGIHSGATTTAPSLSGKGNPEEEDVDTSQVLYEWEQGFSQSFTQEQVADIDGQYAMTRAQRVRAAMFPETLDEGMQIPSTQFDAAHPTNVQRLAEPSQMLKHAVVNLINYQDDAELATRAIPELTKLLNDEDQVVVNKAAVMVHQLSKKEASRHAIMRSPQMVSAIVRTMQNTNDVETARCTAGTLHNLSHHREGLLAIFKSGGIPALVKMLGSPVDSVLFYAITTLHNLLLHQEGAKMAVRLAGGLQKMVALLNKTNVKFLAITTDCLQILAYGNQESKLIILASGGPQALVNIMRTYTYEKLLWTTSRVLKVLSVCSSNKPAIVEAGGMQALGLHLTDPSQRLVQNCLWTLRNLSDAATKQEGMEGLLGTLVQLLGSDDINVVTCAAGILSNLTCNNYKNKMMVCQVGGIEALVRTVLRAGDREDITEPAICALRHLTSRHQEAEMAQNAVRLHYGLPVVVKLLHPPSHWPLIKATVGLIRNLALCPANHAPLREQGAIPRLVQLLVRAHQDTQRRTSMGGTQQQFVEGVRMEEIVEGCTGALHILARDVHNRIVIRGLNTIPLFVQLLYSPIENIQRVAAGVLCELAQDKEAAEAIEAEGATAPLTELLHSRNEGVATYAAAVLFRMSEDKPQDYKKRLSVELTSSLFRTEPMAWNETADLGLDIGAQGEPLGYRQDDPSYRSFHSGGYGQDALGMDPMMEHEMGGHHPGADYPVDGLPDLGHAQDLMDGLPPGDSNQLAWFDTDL
Answer in µM, number only, no unit symbol.

input: Item CC(C)(Oc1cccc(N2CCC[C@@H](C(=O)N(Cc3ccc(-c4cn[nH]c4)cc3)C3CC3)C2)c1Cl)C(=O)N1CCNCC1 [Compound 7] : provide IC50
output: 3.15

input: Item CC(C)(Oc1ccc(Cl)c(N2CCC[C@@H](C(=O)N(Cc3ccc(-c4c[nH]c5ncccc45)cc3)C3CC3)C2)c1)C(=O)N1CCNCC1 [Compound 11] : provide IC50
output: 2.44

input: Item CC(C)(Oc1ccc(Cl)c(N2CCC[C@@H](C(=O)N(Cc3ccc(C4=CCCCC4)cc3)C3CC3)C2)c1)C(=O)N1CCNCC1 [Compound 10] : provide IC50
output: 2.7

* * *

target: BCL9/β-catenin (Homo sapiens, UniProt P35222); assay: FP (BCL-9 avidity) fluorescence polarization competition assay with beta-catenin and FAP-Bcl9 tracer; type: binding; details: Table 2, FP (BCL-9 affinity); read-out: FP
pIC50: −log10 of the molar value.
Field: pIC50. Provide a value for each of the compounds that follow.

input: Item `CC(C)(Oc1cccc(N2CCC[C@@H](C(=O)N(Cc3ccc(-c4cn[nH]c4)c(Cl)c3)C3CC3)C2)c1)C(=O)N1CCNCC1` : provide pIC50
output: 4.70 to 5.00

input: Item `CC(C)(Oc1ccc(Cl)c(N2CCC[C@@H](C(=O)N(Cc3ccc(-c4cn[nH]c4)cc3)C3CC3)C2)c1)C(=O)N1CCNCC1` : provide pIC50
output: 4.70 to 5.00

input: Item `CC(C)(Oc1cccc(N2CCC[C@@H](C(=O)N(Cc3ccc(C4=CCCCC4)c(Cl)c3)C3CC3)C2)c1)C(=O)N1CCNCC1` : provide pIC50
output: 4.30 to 5.00
